tested on: A549 NSCLC; assay: NCI tumour cell line growth inhibition, 48 h
Measured TGI of individual entries

compound	recorded-measurement
Cc1ccsc1/C=N/NC1=NCCN1	> 100 µM
NC(CCSCC(F)(F)F)C(=O)O (stereo unspecified)	> 100 µM
O=C1CC(c2ccc(Cl)cc2)C2(C(=O)NC(=S)NC2=O)C(c2ccc(Cl)cc2)C1 (stereo unspecified)	73 µM
O=c1cc(-c2ccc(Cl)cc2)[nH]c2ccccc12	> 100 µM
O=C(Nc1cccc(C(F)(F)F)c1)C(=O)C(C(=O)c1ccc(Cl)c(Cl)c1)C1OC(=O)c2ccccc21 (stereo unspecified)	> 100 µM

Let us examine a further case.
Field TGI (entry `CC(=O)Nc1ccc(-c2nnc(SCC(=O)Nc3cccc(C)c3)o2)cc1` ) reads 68.6 µM

Provenance of the data: PubChem BioAssay (NCI)
